I'd appreciate it if you could supply melting point values for the items below.

Below are worked cases with known answers.
1. CC(=O)OC(c1ccccc1S(N)(=O)=O)C(C)F (stereo not drawn) = 105 to 107 °C
2. CN(C)c1ccc(NC(=O)N(C)c2cccc(-c3ccc(CC(Nc4ccccc4C(=O)c4ccccc4)C(=O)O)cc3)c2)cc1 (stereo not drawn) = 130 °C

Give melting point for all molecules that follow.
1. CS(=O)(=O)CCOC(=O)NCCSc1ccc2nccn2n1
2. CCOC(=O)Cc1nc(-c2ccc(Cl)cc2)oc1-c1ccoc1
3. CC(C)CCn1ccc(-c2ccc(NC3CCOCC3)cc2)c(Cl)c1=O
4. C=CCOCCOC(=O)c1cc(-n2c(OC)nc(C(F)(F)F)cc2=O)c(F)cc1Cl
5. CS(=O)(=O)N1CCC(CO)CC1
6. CC(C)c1cc(OCCOCc2ccccc2)cc2c1C(=O)N(CCl)S2(=O)=O

Result:
1. 91 to 93 °C
2. 124 to 125 °C
3. > 300 °C
4. 74 to 77 °C
5. 96 to 97 °C
6. 101 to 102 °C

###

For each entry below, report its melting point value.

The cases that follow already have their melting point on record.
1. CCCCOc1ccc(C=C2C(=O)C3(C)CCC2C3(C)C)cc1 (configuration not stated) = 62 °C
2. O=S(=O)(Nc1cccc(Cl)c1)c1cc(S(=O)(=O)Nc2cccc(Cl)c2)c2cc(O)ccc2c1 = 206 to 208 °C
3. CN1CCC(c2cn(S(=O)(=O)c3ccccc3)c3ccc(OS(=O)(=O)c4ccccc4)cc23)CC1 = 123 to 127 °C
4. CCCCn1c(-c2ccc(OC)cc2)nc2c3ccccc3ccc21 = 99.5 to 100 °C
5. O=C1CC(c2cccc3c2OCO3)=Nc2ccc(N3CCOCC3)cc21 = 350 to 352 °C
6. COc1ccc(CNn2c(=O)ccc3ccc(N4CCC[C@H]4CO)nc32)cc1Cl = 131 to 134 °C
7. CC(=O)CC(=O)CCC(=O)CC(C)=O = 62.7 to 64 °C
8. O=[N+]([O-])Cc1cccc(OCc2ccccc2)c1 = 55 to 56 °C

Report melting point for every entry below.
1. COC1(c2ccc(F)cc2)CCC(=NO)CC1 (configuration not stated)
2. O=C(O)c1c(Br)nc(-c2ccccc2)n1Cc1cc2c(cc1Cl)OCO2
3. Clc1ccc2c(c1)CNc1ccccc1O2
4. CC(C)(C)c1ccc(C(=O)Nc2cn3cc(CO)ccc3n2)cc1
5. CCCCCCSC[C@H](N[C@@H](C)C(=O)N1CCC[C@H]1C(=O)O)C(=O)O

Result:
1. 86 to 89 °C
2. 215 °C
3. 123 to 125 °C
4. 249 to 250 °C
5. 109 to 112 °C

List melting point for every entry below, keeping the order given.
1. CCOC(C)(C)C#Cc1ncn2c1CN(C)C(=O)c1cc(F)ccc1-2
2. CCCCN(CCCC)c1ccc(C=Cc2cc(C)c(C=CC3=C(C#N)C(=C(C#N)C#N)OC3(c3ccccc3)C(F)(F)F)cc2C)c(OC)c1 (configuration not stated)

Result:
["136 to 138 °C", "177 to 179 °C"]

Need melting point for each of these compounds.
1. NC(=O)C1CCn2c(cc3ccccc32)C1 (configuration not stated)
2. COCc1cc(OC)c(C=O)c(OC)c1
3. COc1ccc2c(c1)N(CCCCl)c1cccc(S(=O)(=O)N(C)C)c1S2

Result:
["165 to 168 °C", "72 to 76 °C", "124 to 126 °C"]

###

Field: melting point. Provide a value for each of the compounds that follow.

Guide cases for melting point, answers given:
1. CCNc1nc2cc(COc3cccc(C=O)c3)ccc2o1 = 85 to 90 °C
2. O=[N+]([O-])c1ccc(CN2CCc3ccccc32)cc1 = 95 to 97 °C
3. Oc1ccc(-c2nn(CC3CCCCC3)c3c(C(F)(F)F)cccc23)c(O)c1 = 117 to 118 °C
4. Cn1ncc(C(=O)O)c1C(=O)Nc1ccn2nc(-c3cccc(F)c3)nc2c1 = > 260 °C

Record melting point for all entries; do not skip any.
1. COc1ccc(C#Cc2cccc(C(C)N(O)C(N)=O)c2)cc1 (configuration not stated)
2. COc1ccccc1N1CCN(CCCn2c(=O)[nH]c3sccc3c2=O)CC1
3. CN(C)CCNC(=O)Cn1c(-c2cccc(Cl)c2)nc2cccnc21
4. COc1ccc([C@H]2CC[C@H](c3ccc(OC)c(OC)c3)S2)cc1OC (relative stereo)
5. COc1ccc([C@@H]2Sc3cc(Cl)ccc3N(CCN(C)C(=O)OCc3ccccc3)C(=O)[C@@H]2O)cc1

Result:
1. 141 to 142 °C
2. 217 to 218 °C
3. 124 to 125 °C
4. 103 to 105 °C
5. 108 °C

Parameters: items (list). Returns: melting point for each item.
1. O=C(NCCO)c1cccc(-c2ccc3cnn(-c4ccc(Cl)cc4Cl)c3c2)c1
2. COc1cc(OC)nc(NN)n1
3. CCOC(=O)C1CCc2c(sc3ccc(C)cc23)C1 (configuration not stated)

Result:
1. 191 to 192 °C
2. 94 °C
3. 68 to 69 °C

###

Kindly state melting point for each of the entries shown.

1) CN(C)C1CCCCCCCCCCC1N(C)C(=O)c1ccc(C(F)(F)F)cc1 (configuration not stated) = 69 to 70 °C
2) CCCCCCc1cc2c(cc1OCCCC(=O)O)C(=O)CC2 = 88 °C
3) CCC(C)c1ccc(NC(=O)c2sccc2S(=O)(=O)Nc2onc(C)c2Br)cc1 (configuration not stated) = 205 to 208 °C
4) CC(C)(C)OC(=O)N1CCN(c2cncc(Cl)n2)CC1 = 108 °C
5) N#Cc1ccc(N=CNc2ccc(C#N)cc2)cc1 = 214 to 217 °C

Hi! Can you tell me melting point for each of these compounds?
1. COC(=O)[C@H](O)[C@@H](NS(=O)(=O)c1ccc([N+](=O)[O-])cc1)c1ccccc1
2. c1ccc(CCNc2cc(-n3cccn3)nc(-c3cccs3)n2)nc1
3. CC1(C)CCCC(C)(C)N1CCO
4. O=[N+]([O-])c1ccc(C=Cc2ccc(Cl)c(Cl)c2)cc1O
5. COCCN(C)CC(=O)N(C)Cc1ccc(C(=O)Nc2nc3c(OC)ccc(N4CCOCC4)c3s2)cc1
6. O=C(O)c1cc(Cn2cc(C3c4ccccc4C=Cc4ccccc43)c(=S)[nH]c2=O)ccc1Cc1ccccc1
7. CS(=O)(=O)C(=C1CN(C(c2ccccc2)c2ccccc2)C1)c1ccc2ccccc2c1
8. O=S(=O)(NCC(O)(c1ccccc1)c1ccc(OCc2ccccc2)cc1)c1ccccc1 (configuration not stated)

Result:
1. 187 to 189 °C
2. 159 to 160 °C
3. 93 to 94 °C
4. 105 to 106 °C
5. 171 to 173 °C
6. 135 °C
7. 178 °C
8. 148 to 149 °C

###

For each entry below, report its melting point value.

1. Cc1ccc2nc(CO)cc(Cl)c2c1 = 147 to 148 °C

Please state melting point for every compound in the list that follows.
1. Cc1ccccc1CNC(=O)c1cc(C)c([N+](=O)[O-])c(C)c1
2. COc1ccnc(CSc2nc3c(OC(F)F)c(OC)c(OC)cc3[nH]2)c1
3. Cc1ccc2c(c1)CC1(CCC(=O)CC1)C2
4. O=C(O)c1ccc2c(oc3ccccc32)c1C(=O)O

Result:
1: 202 to 203 °C; 2: 112 to 114 °C; 3: 68 to 70 °C; 4: 260 to 262 °C

Batch: melting point for all items listed.
1. CCC(=O)N[C@@H](C)C(=O)N1CCC[C@H]1C(=O)NC1CCCCCC1
2. CNc1nc(C)c(C(=O)c2ccc(N)c(N)c2)s1

Result:
1. 155 to 156 °C
2. 115 to 125 °C

Give melting point for all compounds that follow.
1. CC(=O)NC(=Cc1cccs1)C1=NC(=Cc2cccs2)C(=O)O1
2. COc1cc2c(cc1OC)C(C=Cc1ccc(N(C)C)cc1)=NN=C(C)C2
3. CC(C)(C)OC(=O)CC1CCC(=O)Nc2ccccc21 (configuration not stated)
4. CC(=O)c1ccc2c(c1)C1(c3ccccc3-c3ccccc31)c1ccccc1-2

Result:
218 °C
170 to 172 °C
101 to 103 °C
225 °C

Please fill in: melting point reported for "O=c1ccc(-c2cc(Cl)c(O)c(Cl)c2)n[nH]1" = > 300 °C

###

Assignment: determine reported melting point for the given compounds.

Known results for compounds:
1. COCc1c(OCc2ccccc2)ccc2c1CCCC2=O = 55 to 56 °C
2. COc1ccc(NC(=O)c2ccc(F)c(F)c2)cc1N = 148 to 151 °C
3. O=C(O)c1cn(C2CC2)c2c(F)c(N3CCC4(C3)OCCCO4)c(F)cc2c1=O = 226 to 227 °C
4. CC(=O)CC(=O)NC1CCC(C)CC1 (stereo unspecified) = 111 °C
5. CC(O)(c1ccc(OCc2ccc3ccccc3n2)cc1)c1ccc(OCc2ccc3ccccc3n2)cc1 = 129 to 131 °C
6. CNC(=O)Cn1c(-c2ccc(F)cc2)nc2cccnc21 = 215 to 217 °C
7. O=[N+]([O-])c1ccccc1NCc1cc(Cl)cc(Cl)c1 = 138 to 140 °C
8. c1ccc(C(c2ccc3[nH]cnc3c2)n2ccnc2)cc1 (stereo unspecified) = 186 °C

For every item below, please supply its melting point.
1. CCOC(=O)c1ccc(NC(=O)c2cc(C)no2)cc1
2. CC(=O)n1nc(-c2nc3ccccc3o2)oc1=O
3. CCOc1nn(-c2ccc(C(F)(F)F)cn2)cc1CCCO

Result:
1: 160 to 163 °C; 2: 231 to 232 °C; 3: 85 to 86 °C

I'm hoping you can list melting point for every compound here, please.
1. CCCc1nc2c(N)nc3cc(OC4CCOC4)ccc3c2n1CC(C)C (stereo unspecified)
2. COC(=O)c1ccc(Cn2c(=O)c3c(N4CCN(C)CC4)cc(Cl)cc3n(Cc3ccccc3)c2=O)cc1
3. O=C(O)C1CCN(CC2CN(CC3CCN(c4ccncc4)CC3)C(=O)O2)CC1 (stereo unspecified)
4. CC1(C)COS(=O)(=O)OC1
5. CN(C)C(=O)c1nc(-c2ccccc2)nc2[nH]c3ccccc3c12
6. O=C(NCc1ccc(OC(F)(F)F)cc1)Nc1cccc2[nH]ccc12

Result:
["178 to 182 °C", "90 to 94 °C", "94 to 96 °C", "80 to 82 °C", "218 to 219 °C", "177 °C"]

Hi! Can you tell me melting point for each of these compounds?
1. CC(=O)c1ccc(OCCCCCCCCCCOc2ccccc2)o1
2. COC(C)(C)OCC(C)C1CCC2C3C=CC4=CC(=O)C5OC5C4(C)C3CCC12C (stereo unspecified)
3. CN(C)C(=S)SC(C[N+](=O)[O-])c1cc([N+](=O)[O-])ccc1Cl (stereo unspecified)

Result:
1: 74 to 77 °C; 2: 150 to 151 °C; 3: 120 to 121 °C

Per the records, this compound ( "CC(C)OC(=O)c1ncn2c1cnc1ccccc12" ) has melting point equal to 205 to 206 °C
